tested on: NCI-H2170; assay: relative viability (nuclei count vs DMSO), 5 days (fraction); higher = more cells survive; details: first compound 0.8 µM
measured_property: relative viability
Answer with a bare number; do not write a unit.

Below: 4 compounds and their reported relative viability.
{"columns": ["compound", "relative viability"],
 "data": [
  ["COc1nc(C)cnc1NS(=O)(=O)c1cccnc1-c1ccc(-c2nnco2)cc1 [Zibotentan] + CC(=O)Nc1cccc(-n2c(=O)n(C3CC3)c(=O)c3c(Nc4ccc(I)cc4F)n(C)c(=O)c(C)c32)c1 [Trametinib] (partner 0.02 µM)", 0.903],
  ["O=c1cc(-c2cccc3c2Sc2ccccc2S3)oc(N2CCOCC2)c1 + CC(=O)c1c(C)c2cnc(Nc3ccc(N4CCNCC4)cn3)nc2n(C2CCCC2)c1=O [Palbociclib] (partner 0.5 µM)", 0.414],
  ["COc1nc(C)cnc1NS(=O)(=O)c1cccnc1-c1ccc(-c2nnco2)cc1 [Zibotentan] + CS(=O)(=O)CCNCc1ccc(-c2ccc3ncnc(Nc4ccc(OCc5cccc(F)c5)c(Cl)c4)c3c2)o1 [Lapatinib] (partner 2 µM)", 0.251],
  ["O=c1cc(-c2cccc3c2Sc2ccccc2S3)oc(N2CCOCC2)c1 + CC(=O)Nc1cccc(-n2c(=O)n(C3CC3)c(=O)c3c(Nc4ccc(I)cc4F)n(C)c(=O)c(C)c32)c1 [Trametinib] (partner 0.02 µM)", 1.06]
]}

query: Which relative viability value is on record for O=c1cc(-c2cccc3c2Sc2ccccc2S3)oc(N2CCOCC2)c1 + NC(=O)Nc1cc(-c2cccc(F)c2)sc1C(=O)N[C@H]1CCCNC1 [AZD7762] (partner 0.2 µM) ?
result: 0.996

query: Which relative viability value is on record for O=c1cc(-c2cccc3c2Sc2ccccc2S3)oc(N2CCOCC2)c1 + CS(=O)(=O)CCNCc1ccc(-c2ccc3ncnc(Nc4ccc(OCc5cccc(F)c5)c(Cl)c4)c3c2)o1 [Lapatinib] (partner 2 µM) ?
result: 0.239

query: Which relative viability value is on record for O=c1cc(-c2cccc3c2Sc2ccccc2S3)oc(N2CCOCC2)c1 + O=C(c1cc(Cc2n[nH]c(=O)c3ccccc23)ccc1F)N1CCN(C(=O)C2CC2)CC1 [Olaparib] (partner 8 µM) ?
result: 0.689

query: Which relative viability value is on record for COc1nc(C)cnc1NS(=O)(=O)c1cccnc1-c1ccc(-c2nnco2)cc1 [Zibotentan] + O=C(c1cc(Cc2n[nH]c(=O)c3ccccc23)ccc1F)N1CCN(C(=O)C2CC2)CC1 [Olaparib] (partner 8 µM) ?
result: 0.522

* * *

tested on: IA-LM; test: relative viability (nuclei count vs DMSO), 5 days (fraction); higher = more cells survive; conditions: first compound 0.3162 µM
measured_property: relative viability
Answer with a bare number; do not write a unit.

Below: 2 compounds and their reported relative viability.
{"columns": ["compound", "observed_value"],
 "data": [
  ["O=c1cc(N2CCOCC2)oc2c(-c3cccc4c3sc3ccccc34)cccc12 + Cc1nc(NC(=O)N2CCC[C@H]2C(N)=O)sc1-c1ccnc(C(C)(C)C(F)(F)F)c1 [Alpelisib] (partner 2 µM)", 0.736],
  ["CCN(CC)CCCCNc1ncc2cc(-c3cc(OC)cc(OC)c3)c(NC(=O)NC(C)(C)C)nc2n1 + O=C(c1cc(Cc2n[nH]c(=O)c3ccccc23)ccc1F)N1CCN(C(=O)C2CC2)CC1 [Olaparib] (partner 8 µM)", 0.762]
]}

query: Field: relative viability (IA-LM). Entry: CCN(CC)CCCCNc1ncc2cc(-c3cc(OC)cc(OC)c3)c(NC(=O)NC(C)(C)C)nc2n1 + O=C(CCCCCCC(=O)Nc1ccccc1)NO [Vorinostat] (partner 1 µM)
result: 1.26

query: Field: relative viability (IA-LM). Entry: CCN(CC)CCCCNc1ncc2cc(-c3cc(OC)cc(OC)c3)c(NC(=O)NC(C)(C)C)nc2n1 + CC(C)C[C@H](NC(=O)[C@H](Cc1ccccc1)NC(=O)c1cnccn1)B(O)O [Bortezomib] (partner 0.002 µM)
result: 0.557

query: Field: relative viability (IA-LM). Entry: O=c1cc(N2CCOCC2)oc2c(-c3cccc4c3sc3ccccc34)cccc12 + O=C(c1cc(Cc2n[nH]c(=O)c3ccccc23)ccc1F)N1CCN(C(=O)C2CC2)CC1 [Olaparib] (partner 8 µM)
result: 0.793
